- System: SNB-78
- methodDescription: NCI tumour cell line growth inhibition, 48 h
Activity calls are given as the source filed them. Rule as the data show it: active = GI50 up to about 1.1 µM and inactive = higher.
Classes used: active, inactive

- compound: "Cc1ccc(NC(=O)CCC(=O)C2Cc3ccccc3C2=O)cc1C (stereo unspecified)"
  className: "inactive"
- compound: "O=NN(CCCl)C(=O)NC1CCSc2ccccc21 (stereo unspecified)"
  className: "inactive"
- compound: "C=C1C(=O)OC2C1C(OC(=O)/C(C)=C\\C)CC1(CO1)C1C(O)C=C(C)C21O (stereo unspecified)"
  className: "inactive"
- compound: "COc1ccc(C23C(=O)c4ccccc4N2O[C@H]2C(=O)N(c4ccccc4)C(=O)[C@H]23)cc1 (stereo partly specified)"
  className: "inactive"
- compound: "CC(=O)/C(=N\\O)C(=O)NCCc1ccccc1"
  className: "inactive"
- compound: "Clc1ccc(C2SCc3nc4ccccc4n32)cc1Cl (stereo unspecified)"
  className: "inactive"
- compound: "CC1C(O)C2(Oc3cc4c(c5c3[C@@H](CC5O)[C@H]2C)CCC2Cc3nc5c(nc3C[C@@]42C)CC2CCC3C4=C[C@H]6O[C@@]7(O[C@@](C)(CO)C[C@@H]7O)C(C)[C@@]6(O)[C@]4(C)[C@@H](O)CC3[C@]2(C)C5)OC1(C)C (stereo partly specified)"
  className: "active"
- compound: "COc1cc([C@@H]2c3cc4c(cc3[C@@H](OC(=O)c3ccc(N)cc3)C3COC(=O)[C@@H]32)OCO4)cc(OC)c1O (stereo partly specified)"
  className: "inactive"
- compound: "Nc1c([N+](=O)[O-])nc(Cl)c2nncn12"
  className: "inactive"
- compound: "COC(=O)/C=C/C1C(C(=O)OC)C2(C(=O)OC)CCC1(C(=O)OC)N2 (stereo unspecified)"
  className: "inactive"
- compound: "Cc1nc(Nc2ccc(Cl)cc2)sc1C(=O)Nc1cccc2c(=O)[nH][nH]c(=O)c12"
  className: "inactive"

Value source: ChEMBL document CHEMBL1201862
